- Test system: SNB-19
- ASSAY METHOD TEXT: NCI tumour cell line growth inhibition, 48 h
Activity calls are given as the source filed them. Cut-off read from the data, not from the text of the source: active = GI50 up to about 1.1 µM and inactive = higher. Where a SMILES comes first, the peptide text is derived from it. The star is where a group is joined. Boc = CC(C)(C)OC(=O)*; OBn = c1ccc(CO*)cc1
// one of active, inactive, no free text

Problem: Hi team, can someone confirm the assay call for Clc1ncc(Cl)c(Cl)n1 ?
Solution: inactive

Problem: Hi team, can someone confirm the assay call for O=c1[nH]c2nccn2c(Cl)c1Br ?
Solution: inactive

Problem: Hi team, can someone confirm the assay call for O=C(O)c1ccccc1CN1CCCC(C(=O)O)C1 (stereo unspecified) ?
Solution: inactive

Problem: Hi team, can someone confirm the assay call for O=C1Cc2c(-c3ccccc3)cc(-c3ccc4ccccc4c3)nc2-c2ccccc2N1 ?
Solution: inactive

Problem: Hi team, can someone confirm the assay call for NCC(=O)Nc1ccccc1 ?
Solution: inactive

Problem: Hi team, can someone confirm the assay call for CCCCCCCCCCCCCCCCCC(CCCCCCCCCCCCCCCCC)OP(=O)(O)O ?
Solution: inactive

Problem: Hi team, can someone confirm the assay call for O=C1C[C@@H]2[C@@H](C=CC23CCCC3)N1O ?
Solution: inactive

Problem: Hi team, can someone confirm the assay call for Cc1ccc(C(=O)N/N=C(\N=N\c2ccc(C(=O)O)cc2)c2ccc(N(CCC#N)CCC#N)cc2C)cc1 ?
Solution: inactive

Problem: Hi team, can someone confirm the assay call for CC1=C[C@@H]2[C@@H](CC(CO)=C[C@H]3[C@@H]4C(C)(C)[C@]4(OCC(C)C)[C@H](OCC(C)C)[C@@H](C)[C@]23O)C1=O ?
Solution: inactive

Problem: Hi team, can someone confirm the assay call for CC1(F)C=CC(=O)C=C1 ?
Solution: inactive

Problem: Hi team, can someone confirm the assay call for COC(=O)c1ccc(/N=N/N(C)COc2ccc(C#N)cc2)cc1 ?
Solution: inactive

Problem: Hi team, can someone confirm the assay call for O=c1[nH]c2ccccc2n1C1CCN(CCCC(c2ccc(F)cc2)c2ccc(F)cc2)CC1 [PIMOZIDE] ?
Solution: inactive

Problem: Hi team, can someone confirm the assay call for O=C(O)c1cc2c(cc1S(=O)(=O)O)C1C(C3C2C2(Cl)C(Cl)=C(Cl)C3(Cl)C2(Cl)Cl)C2(Cl)C(Cl)=C(Cl)C1(Cl)C2(Cl)Cl (stereo unspecified) ?
Solution: inactive

Problem: Hi team, can someone confirm the assay call for Cc1ccc(S(=O)(=O)OC2CCN(C)CC2)cc1 ?
Solution: inactive

Problem: Hi team, can someone confirm the assay call for O=C1C=C2CCCC2C(C(=O)O)(C(=O)O)C1 (stereo unspecified) ?
Solution: inactive

Problem: Hi team, can someone confirm the assay call for CCCn1c(SC)nc(COC(=O)NC)c1COC(=O)NC ?
Solution: inactive

Problem: Hi team, can someone confirm the assay call for c1ccc([P+](Cc2ccccc2C[P+](c2ccccc2)(c2ccccc2)c2ccccc2)(c2ccccc2)c2ccccc2)cc1 ?
Solution: inactive

Problem: Hi team, can someone confirm the assay call for CC[C@@]1(O)C(=O)OCc2c1cc1n(c2=O)Cc2c-1nc1ccccc1c2/C=N\NC(=O)C1CCCN1 (stereo partly specified) ?
Solution: active

Problem: Hi team, can someone confirm the assay call for O=C1Nc2ccccc2[C@]12C[C@H]2c1ccccn1 ?
Solution: inactive

Problem: Hi team, can someone confirm the assay call for CCOC(=O)C(=O)/C(=C/NC(=S)c1ccncc1)C(=O)OCC ?
Solution: inactive

Problem: Hi team, can someone confirm the assay call for Cc1nnc2n1N=C(CC(=O)c1ccc(O)cc1O)CN2N ?
Solution: inactive

Problem: Hi team, can someone confirm the assay call for CCCC(=O)C(CC)/C(CCC(=O)N(Cc1ccccc1)Cc1ccccc1)=N/NC(=O)C[N+](C)(C)C (stereo unspecified) ?
Solution: inactive

Problem: Hi team, can someone confirm the assay call for Oc1c(C(Nc2cccc3cccnc23)c2ccccc2)ccc2cccnc12 (stereo unspecified) ?
Solution: inactive

Problem: Hi team, can someone confirm the assay call for COC(c1ccsc1)C(C#N)(C#N)/N=C/c1ccsc1 (stereo unspecified) ?
Solution: inactive

Problem: Hi team, can someone confirm the assay call for O=c1[nH]c(=O)n(C2CC(O)C(COP(=O)(O)OC3CC(n4cc(F)c(=O)[nH]c4=O)OC3COP(=O)(O)OC3CC(n4cc(F)c(=O)[nH]c4=O)OC3COP(=O)(O)OC3CC(n4cc(F)c(=O)[nH]c4=O)OC3COP(=O)(O)OC3CC(n4cc(F)c(=O)[nH]c4=O)OC3COP(=O)(O)OC3CC(n4cc(F)c(=O)[nH]c4=O)OC3COP(=O)(O)OC3CC(n4cc(F)c(=O)[nH]c4=O)OC3COP(=O)(O)OC3CC(n4cc(F)c(=O)[nH]c4=O)OC3COP(=O)(O)OC3CC(n4cc(F)c(=O)[nH]c4=O)OC3COP(=O)(O)OC3CC(n4cc(F)c(=O)[nH]c4=O)OC3CO)O2)cc1F (stereo unspecified) ?
Solution: active

Problem: Hi team, can someone confirm the assay call for O=C1C(c2ccccc2)=[N+]([O-])c2ccccc21 ?
Solution: inactive

Problem: Hi team, can someone confirm the assay call for N#Cc1c(N)[nH]c2ccc(Sc3ccccc3)cc12 ?
Solution: active

Problem: Hi team, can someone confirm the assay call for CCCc1c2c3ccccc3nc-2nc2ccccn12 ?
Solution: inactive

Problem: Hi team, can someone confirm the assay call for CCOC(=O)N1c2ccccc2C(C)=CC(C)C1C (stereo unspecified) ?
Solution: inactive

Problem: Hi team, can someone confirm the assay call for CCOC(=O)CCC(NC(=O)Cc1ccc(Oc2nc3ccccc3nc2-c2ccccc2)cc1)C(=O)OCC (stereo unspecified) ?
Solution: inactive

Problem: Hi team, can someone confirm the assay call for C=CCCCCCCCCCOC1C=CC(OC(C)=O)C(COC(C)=O)O1 (stereo unspecified) ?
Solution: inactive

Problem: Hi team, can someone confirm the assay call for O=C1CCSc2nc(-c3ccc4c(c3)OCO4)nn21 ?
Solution: inactive

Problem: Hi team, can someone confirm the assay call for CCCC[S+]([O-])CCC(N)P(=O)(O)O (stereo unspecified) ?
Solution: inactive

Problem: Hi team, can someone confirm the assay call for CC(=O)O[C@H]1C(=O)[C@@]2(C)C(C(OC(=O)c3ccccc3)[C@]3(O)CC(OC(=O)C(O)C(NC(=O)c4ccccc4)c4ccc(F)cc4)C(C)=C1C3(C)C)[C@]1(OC(C)=O)CO[C@@H]1C[C@@H]2O (stereo partly specified) ?
Solution: active

Problem: Hi team, can someone confirm the assay call for CC(C)CC(NC(=O)OC(C)(C)C)C(=O)N1CCCC1C(=O)OCc1ccccc1 (stereo not drawn) (Boc-Leu-Pro-OBn; configuration not given here) ?
Solution: inactive

Problem: Hi team, can someone confirm the assay call for O=c1c2ccccc2nc(Nc2cccc(Cl)c2)n1/N=C/C=C/c1ccccc1 ?
Solution: inactive

====

Please provide measured GI50 for the entries that follow.
Just the number please, in µM, no unit attached.

Problem: Given CCc1c(-c2ccc(OC)cc2)c(=O)oc2cc(O)ccc12 , report its GI50 on HCT-15.
Solution: 25.9

Problem: Given O=c1[nH]c2ccccc2n1C1CCN(CCCC(c2ccc(F)cc2)c2ccc(F)cc2)CC1 [PIMOZIDE] , report its GI50 on HCT-15.
Solution: 3.1

Problem: Given COc1cc2ccnc([C@@H](OC(=O)c3ccccc3)c3ccc(OC)c(OC)c3OC)c2cc1OC , report its GI50 on HCT-15.
Solution: 42.4

Problem: Given CC(C)C(=O)/C=C/c1ccc(Cl)cc1Cl , report its GI50 on HCT-15.
Solution: 12.2

Problem: Given Cc1ccc(-c2n[nH]c(=O)n2/N=C\c2ccccc2)cc1 , report its GI50 on HCT-15.
Solution: 72.6

====

- Test system: SN12C
- ASSAY METHOD TEXT: NCI tumour cell line growth inhibition, 48 h
Calls of active or inactive are those of the source. Rule as the data show it: active = GI50 up to about 1.1 µM and inactive = higher.
Please provide measured GI50 for the entries that follow.

Problem: Given CN(C)C(=S)S [SODIUM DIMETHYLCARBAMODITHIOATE] , report its GI50 on SN12C.
Solution: 80 µM (inactive)

Problem: Given O=C(O)C1(Cc2ccccc2)Cc2cc3c(cc2C1)CCC3 , report its GI50 on SN12C.
Solution: > 100 µM (inactive)

Problem: Given COC(=O)C(Cc1nc2ccc(Cl)cc2nc1O)/C(=N\N)C(=O)Nc1cc(C)c(Cl)cc1S(=O)(=O)O (stereo not drawn) , report its GI50 on SN12C.
Solution: > 100 µM (inactive)

Problem: Given C=CC1ON(C)CCc2cc(OC)c(OC)cc21 (stereo not drawn) , report its GI50 on SN12C.
Solution: > 100 µM (inactive)

Problem: Given COc1ccc(N(C(=O)Nc2ccc(Cl)c(Cl)c2)C2c3cccn3C(=O)N2c2ccc(Cl)c(Cl)c2)cc1 (stereo not drawn) , report its GI50 on SN12C.
Solution: > 100 µM (inactive)

Problem: Given COc1ccc(/C=C2\CN(C)C/C(=C\c3ccc(OC)cc3)C2=O)cc1 , report its GI50 on SN12C.
Solution: > 100 µM (inactive)

Problem: Given O=C1Nc2ccccc2/C1=N\c1cccc2ncccc12 , report its GI50 on SN12C.
Solution: > 100 µM (inactive)

Problem: Given O=[N+]([O-])c1ccc2c3c1[C@H]1O[C@H]1c1cccc(c1-3)[C@@H]1O[C@H]21 , report its GI50 on SN12C.
Solution: 2.12 µM (inactive)

Problem: Given COC(c1ccsc1)C(C#N)(C#N)/N=C/c1ccsc1 (stereo not drawn) , report its GI50 on SN12C.
Solution: 16.7 µM (inactive)

Problem: Given CC(=O)OC(Cc1cc(C=C(C(F)(F)F)C(F)(F)F)cc(C)n1)(C(F)(F)F)C(F)(F)F , report its GI50 on SN12C.
Solution: 1.44 µM (inactive)

Problem: Given C=C(C)C(O)CCC1(C)C=Cc2c(c(C)cc3c2[nH]c2ccccc23)O1 (stereo not drawn) , report its GI50 on SN12C.
Solution: 12.8 µM (inactive)

Problem: Given O/N=C(\c1ccccc1)N1CCCCC1 , report its GI50 on SN12C.
Solution: > 100 µM (inactive)

Problem: Given COc1cc(C(=O)O[C@H]2CCC3CCC2N3C)cc(OC)c1OC (stereo partly drawn) , report its GI50 on SN12C.
Solution: > 100 µM (inactive)

Problem: Given c1ccc([P+](Cc2ccccc2C[P+](c2ccccc2)(c2ccccc2)c2ccccc2)(c2ccccc2)c2ccccc2)cc1 , report its GI50 on SN12C.
Solution: > 100 µM (inactive)

Problem: Given CCCCCCCCCc1cc(=O)c2c(O)cc(O)cc2o1 , report its GI50 on SN12C.
Solution: 22.2 µM (inactive)

Problem: Given COc1cc(NC(C)CCCN)c2nccc(C)c2c1 (stereo not drawn) , report its GI50 on SN12C.
Solution: 31.4 µM (inactive)

Problem: Given Cc1ccn2c(=O)cc(-c3ccccc3)nc2c1 , report its GI50 on SN12C.
Solution: 93.8 µM (inactive)

Problem: Given ClCCCN1CCN(CCCl)CC1 , report its GI50 on SN12C.
Solution: 34.4 µM (inactive)

Problem: Given CNC(=O)OCc1c(COC(=O)NC)c(C)n(-c2ccc(Br)cc2)c1C , report its GI50 on SN12C.
Solution: 9.16 µM (inactive)

Problem: Given COC(=O)/C(C#N)=C1\CCC(O)N1 (stereo not drawn) , report its GI50 on SN12C.
Solution: > 100 µM (inactive)

Problem: Given O=C(c1c(Cl)cc(Cl)cc1Cl)N(Cc1cccnc1)C(=S)N(Cc1cccnc1)C(=O)c1c(Cl)cc(Cl)cc1Cl , report its GI50 on SN12C.
Solution: 5.68 µM (inactive)

Problem: Given Fc1cccc2c1cc1ccc3cccc4ccc2c1c34 , report its GI50 on SN12C.
Solution: > 100 µM (inactive)

Problem: Given Cc1c(-c2ccccc2)oc(=O)c2ccccc12 , report its GI50 on SN12C.
Solution: 17.7 µM (inactive)

meta.source: ChEMBL document CHEMBL1201862
